Assay: Plasma clearance in Sprague-Dawley rat at 0.5 mg/kg, iv
Format: ADME, organism-based
Parameters: dose 0.5 mg/kg, route intravenous
measure: clearance (L/h/kg)

# smiles-record, clearance / L/h/kg
rows = [
    ("O=C(NC1CC1)c1ccc(-c2cnc3c(NCC4CCOCC4)cc(Oc4ccccc4F)nn23)cc1", 1.32),
]

P = CC(C)(C)Nc1cc(NCC2CCOCC2)c2ncc(-c3ccc(C(=O)NC4CC4)cc3)n2n1
Q = N#Cc1ccc(-c2cc(NCC3CCOCC3)c3ncc(-c4ccc(C(=O)NC5CC5)cc4)n3n2)c(N)c1
R = O=C(NC1CC1)c1ccc(-c2cnc3c(NCC4CCOCC4)cc(OC4CCCCC4)nn23)cc1
S = N#Cc1ccc(-c2cc(NCC3CCOCC3)c3ncc(-c4ccc(C(=O)NC5CC5)cc4)n3n2)cc1
T = N#Cc1ccc(-c2cn3c(-c4ccc(C(=O)NC5CC5)cc4)cnc3c(NCC3CCOCC3)n2)cc1
Order the entries by their reported clearance, beginning at the minimum. Form entry: labels listed in requested order.
R, P, Q, S, T
(R: 0.522 L/h/kg, P: 0.96 L/h/kg, Q: 1.38 L/h/kg, S: 2.28 L/h/kg, T: 8.7 L/h/kg)
